SYSTEM_UNDER_TEST: Asn111Ala mutant E. coli DHOD (Escherichia coli, UniProt P0A7E1, N111A)
Sequence (P0A7E1 whole entry N111A): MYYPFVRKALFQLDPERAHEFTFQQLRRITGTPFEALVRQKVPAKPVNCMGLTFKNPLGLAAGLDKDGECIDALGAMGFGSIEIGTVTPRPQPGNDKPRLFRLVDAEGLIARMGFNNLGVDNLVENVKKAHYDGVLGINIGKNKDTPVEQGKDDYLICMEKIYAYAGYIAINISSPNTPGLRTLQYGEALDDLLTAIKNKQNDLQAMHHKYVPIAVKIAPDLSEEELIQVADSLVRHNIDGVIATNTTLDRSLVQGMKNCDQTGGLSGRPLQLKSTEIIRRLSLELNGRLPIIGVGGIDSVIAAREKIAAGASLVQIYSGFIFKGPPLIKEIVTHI
EXPERIMENT_NOTES: biochemical
ENDPOINT_LABEL: Kd (µM)
Entry rule: numbers only, all in µM.

Q: Need Kd, item O=C(O)c1cc(=O)[nH]c(=O)[nH]1 [OA, orotate]
Ans: 47.2

====

SYSTEM_UNDER_TEST: wild-type E. coli DHOD (Escherichia coli)
Sequence (P0A7E1 whole entry): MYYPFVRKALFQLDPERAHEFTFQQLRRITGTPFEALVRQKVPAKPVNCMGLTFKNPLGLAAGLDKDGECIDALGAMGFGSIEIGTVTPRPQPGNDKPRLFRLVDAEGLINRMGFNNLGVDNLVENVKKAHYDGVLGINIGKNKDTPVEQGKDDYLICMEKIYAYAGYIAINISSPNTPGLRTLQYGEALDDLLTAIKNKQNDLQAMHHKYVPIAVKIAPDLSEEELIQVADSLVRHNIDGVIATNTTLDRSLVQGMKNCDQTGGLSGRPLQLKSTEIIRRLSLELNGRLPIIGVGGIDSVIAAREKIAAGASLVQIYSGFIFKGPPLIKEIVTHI
EXPERIMENT_NOTES: biochemical
ENDPOINT_LABEL: Kd
Form field: result (number plus unit)

Q: Identify the measured Kd of O=C(O)c1cc(=O)[nH]c(=O)[nH]1 [OA, orotate] for wild-type E. coli DHOD (Escherichia coli).
Ans: 3.4 µM

Sourced from paper PMC2800825
